Biological target: T1, human MSLN-R3 protein (human, UniProt Q13421 487-598)
T1 construct: also called hMSLN-R3
T1 sequence (Q13421 495-606, form in doubt): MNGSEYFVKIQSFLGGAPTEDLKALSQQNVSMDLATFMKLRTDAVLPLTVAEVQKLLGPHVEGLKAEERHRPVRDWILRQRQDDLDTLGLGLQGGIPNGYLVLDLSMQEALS
Assay: ELISA on coated antigen, antibody 0.001 nM
measured attribute: OD450

binder="F7.44.20-H3 (scFv, not shown: small tags and cut ends, also called S009-F7.44.20 humanized antibody VH1 + VL3) scFv: EVQLVQSGAEVKKPGASVKVSCKASGYTFTDYNMDWVRQAPGQGLEWMGDINPSTGGTIYNQKFNGRVTMTEDKSTSTVYMELSSLRSEDTAVYYCARRRIGTGYFDVWGQGTTVTVSSGGGGSGGGGSGGGGSEIVLTQSPATLSLSPGERATLSCSASSSVISSYLSWYQQKPGQSPRLLIYRTSNLASGIPARFSGSGSGTDYTLTISSLEPEDFAVYYCHQWSSFPYTFGGGTKVEIK" value_reported="0.04 OD450"
binder="F7.44.20-H6 (scFv, not shown: small tags and cut ends, also called S009-F7.44.20 humanized antibody VH1a + VL2) scFv: EVQLVQSGAEVKKPGASVKVSCKASGYTFTDYNMDWVRQAPGQGLEWMGDINPSTGGTIYNQKFQGRVTMTEDKSTSTVYMELSSLRSEDTAVYYCARRRIGTGYFDVWGQGTTVTVSSGGGGSGGGGSGGGGSEIVLTQSPDFQSVTPKEKVTITCSASSSVISSYLSWYQQKPDQSPKLLIYRTSNLASGVPSRFSGSGSGTDYTLTINSLEAEDAATYYCHQWSSFPYTFGGGTKVEIK" value_reported="0.05 OD450"
binder="F7.44.20-H11 (scFv, not shown: small tags and cut ends, also called S009-F7.44.20 humanized antibody VH2 + VL3) scFv: EVQLVQSGAEVKKPGASVKVSCKASGYTFTDYNMDWVRQAPGQGLEWMGDINPSTGGTIYNQKFNGRVTMTEDKSASTVYMELSSLRSEDTAVYYCARRRIGTGYFDVWGQGTTVTVSSGGGGSGGGGSGGGGSEIVLTQSPATLSLSPGERATLSCSASSSVISSYLSWYQQKPGQSPRLLIYRTSNLASGIPARFSGSGSGTDYTLTISSLEPEDFAVYYCHQWSSFPYTFGGGTKVEIK" value_reported="0.04 OD450"
binder="F7.44.20-H7 (scFv, not shown: small tags and cut ends, also called S009-F7.44.20 humanized antibody VH1a + VL3) scFv: EVQLVQSGAEVKKPGASVKVSCKASGYTFTDYNMDWVRQAPGQGLEWMGDINPSTGGTIYNQKFQGRVTMTEDKSTSTVYMELSSLRSEDTAVYYCARRRIGTGYFDVWGQGTTVTVSSGGGGSGGGGSGGGGSEIVLTQSPATLSLSPGERATLSCSASSSVISSYLSWYQQKPGQSPRLLIYRTSNLASGIPARFSGSGSGTDYTLTISSLEPEDFAVYYCHQWSSFPYTFGGGTKVEIK" value_reported="0.04 OD450"

Entry source: patent US20250250357A1
